From: the OligoGym collection

# target-of-assay: AIG1
# assay-remarks: pooled miR-30 sensor sort-seq; sequence = guide strand
# stated-conditions: shRNA
Decide by sensor-assay potency score (higher = more potent): equal to or exceeding -1 means yes (1), less means no (0).

A selection of reference data follows.
1. TTTGGAAACAACTGTATTCTAT    yes (1)
2. TAAATGATCCAGAACACTGCTA    yes (1)
3. TTCTTTAACACACAGTGAGGGT    yes (1)
4. TAATATAAAGGGCAGAACCGTC    no (0)
5. ATAAAGGGCAGAACCGTCGTGT    yes (1)

Is the recorded value of sensor-assay potency score (higher = more potent) equal to or greater than -1 for this sequence? AATTCTTTAACACACAGTGAGG
no (0)

Is the recorded value of sensor-assay potency score (higher = more potent) equal to or greater than -1 for this sequence? TTGGAAACAACTGTATTCTATG
yes (1)
